- target.system: Human recombinant p38 enzyme (p38α) (Homo sapiens, UniProt Q16539)
- Sequence (Q16539 whole entry): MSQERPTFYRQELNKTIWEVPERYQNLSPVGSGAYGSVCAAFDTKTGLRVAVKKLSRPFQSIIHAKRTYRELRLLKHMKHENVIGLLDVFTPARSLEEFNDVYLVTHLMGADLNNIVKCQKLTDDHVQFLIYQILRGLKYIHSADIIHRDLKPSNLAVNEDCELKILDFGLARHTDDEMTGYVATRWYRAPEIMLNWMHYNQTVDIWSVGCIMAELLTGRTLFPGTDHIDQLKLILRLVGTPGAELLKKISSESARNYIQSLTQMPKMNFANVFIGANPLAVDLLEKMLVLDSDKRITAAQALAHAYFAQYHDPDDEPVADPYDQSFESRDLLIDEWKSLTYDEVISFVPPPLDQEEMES
- method.description: p38 Kinase Assay (ATF-2 phosphorylation ELISA)
- condition.label: 2h pre-incubation with p38 kinase, ATP 250 μM, 1% DMSO; read-out: p38α inhibition (IC50)
pIC50: −log10 of the molar value.
Reported pIC50 is given for each of the following compounds.

Worked cases, pIC50 given:
compound: Cc1ccc(-n2nc(C(C)(C)C)cc2NC(=O)N[C@H]2C[C@H](Oc3ccc4nnc(C(C)C)n4c3)c3ccccc32)cc1 [Example 13]
observation.type: pIC50
result: > 8.00
//
compound: Cc1ccc(-n2nc(C(C)(C)C)cc2NC(=O)N[C@H]2CC[C@H](Oc3ccc4nnc(C(C)C)n4c3)c3ccccc32)cc1 [Example 11]
observation.type: pIC50
result: > 8.00
//
compound: Cc1ccc(-n2nc(C(C)(C)C)cc2NC(=O)N[C@H]2C[C@@H](Oc3ccc4nnc(C(C)C)n4c3)c3ccccc32)cc1 [Example 15]
observation.type: pIC50
result: 5.15 to 6.30
//
compound: Cc1ccc(-n2nc(C(C)(C)C)cc2NC(=O)N[C@H]2CC[C@@H](Oc3ccc4nnc(-c5ccccc5OCc5ccccc5)n4c3)c3ccccc32)cc1 (racemic) [Example 5]
observation.type: pIC50
result: 7.00 to 8.00
//
compound: Cc1ccc(-n2nc(C(C)(C)C)cc2NC(=O)N[C@H]2CC[C@H](Oc3ccc4nnc(C(C)C)n4c3)c3ccccc32)cc1 (racemic) [Example 2]
observation.type: pIC50
result: > 8.00

Shifting focus to the compound that follows.
Lab note: CC(C)c1nnc2ccc(O[C@@H]3CC[C@H](NC(=O)Nc4cc(C(C)(C)C)on4)c4ccccc43)cn12 (racemic) [Example 6] gave pIC50 of > 8.00

---

- target.system: Human recombinant p38 enzyme (p38α) (Homo sapiens)
- Construct: purchased Calbiochem 559324; host or cells: E. coli
- method.description: p38 Kinase Assay (ATF-2 phosphorylation ELISA)
- Format: biochemical
- condition.label: 2h pre-incubation with p38 kinase, ATP 250 μM, 1% DMSO; read-out: p38α inhibition (IC50)
observation.type: IC50

These solved cases illustrate the format of a correct answer.
compound: Cc1ccc(-n2nc(C(C)(C)C)cc2NC(=O)N[C@H]2CC[C@@H](Oc3ccc4nnc(-c5ccccc5Cl)n4c3)c3ccccc32)cc1 (racemic)
IC50: < 10 nM

compound: Cc1ccc(-n2nc(C(C)(C)C)cc2NC(=O)N[C@H]2CC[C@@H](Oc3ccc4nnc(-c5ccccc5O)n4c3)c3ccccc32)cc1 (racemic)
IC50: < 10 nM

compound: Cc1ccc(-n2nc(C(C)(C)C)cc2NC(=O)N[C@H]2CCC[C@@H](Oc3ccc4nnc(C(C)C)n4c3)c3ccccc32)cc1 (racemic)
IC50: 10 to 100 nM

Form field IC50, entry "COCC(=O)Nc1cc(CO[C@H]2CC[C@H](NC(=O)Nc3cc(C(C)(C)C)nn3-c3ccc(C)cc3)c3ccccc32)ccn1" : < 10 nM

IC50 reported for this compound "Cc1ccc(-n2nc(C(C)(C)C)cc2NC(=O)N[C@H]2CC[C@H](Oc3ccc4nnc(-c5ccccc5SCCO)n4c3)c3ccccc32)cc1" : < 10 nM

GET /value?item= Cc1ccc(-n2nc(C(C)(C)C)cc2NC(=O)N[C@H]2CC[C@@H](Oc3ccc4nnc(C(C)C)n4c3)c3ccccc32)cc1 (racemic) [Example 1] &field=IC50 returns < 10 nM

Measured IC50 of "Cc1ccc(-n2nc(C(C)(C)C)cc2NC(=O)N[C@@H]2CC[C@@H](Oc3ccc4nnc(C(C)C)n4c3)c3ccccc32)cc1" : 100 to 500 nM

Record Cc1ccc(-n2nc(C(C)(C)C)cc2NC(=O)N[C@H]2CCC[C@H](Oc3ccc4nnc(C(C)C)n4c3)c3ccccc32)cc1 (racemic) . Reported IC50: 10 to 100 nM

---

- target.system: Human recombinant p38 enzyme (p38α) (Homo sapiens, UniProt Q16539)
- method.description: p38 Kinase Assay (ATF-2 phosphorylation ELISA)
- condition.label: 2h pre-incubation with p38 kinase, ATP 250 μM, 1% DMSO; read-out: p38α inhibition (IC50)
pIC50: −log10 of the molar value.
Quick list: pIC50 per entry.

// solved cases for pIC50 follow
molecule: Cc1ccc(-n2nc(C(C)(C)C)cc2NC(=O)N[C@H]2CC[C@@H](Oc3ccc4nnc(C(C)C)n4c3)c3ccccc32)cc1 [Example 10]
pIC50: > 8.00

molecule: Cc1ccc(-n2nc(C(C)(C)C)cc2NC(=O)N[C@@H]2C[C@@H](Oc3ccc4nnc(C(C)C)n4c3)c3ccccc32)cc1
pIC50: 6.30 to 7.00

molecule: COc1c(NC(=O)N[C@H]2CC[C@H](Oc3ccc4nnc(C(C)C)n4c3)c3ccccc32)cc(C(C)(C)C)cc1NS(C)(=O)=O
pIC50: > 8.00

molecule: Cc1ccc(-n2nc(C(C)(C)C)cc2NC(=O)N[C@@H]2C[C@H](Oc3ccc4nnc(C(C)C)n4c3)c3ccccc32)cc1
pIC50: 5.15 to 6.30

molecule: CC(C)c1nnc2ccc(O[C@H]3CC[C@H](NC(=O)Nc4cc(C(C)(C)C)on4)c4ccccc43)cn12
pIC50: > 8.00

molecule: Cc1ccc(-n2nc(C(C)(C)C)cc2NC(=O)N[C@@H]2CC[C@H](Oc3ccc4nnc(C(C)C)n4c3)c3ccccc32)cc1
pIC50: 6.30 to 7.00

Lab book: pIC50 of Cc1ccc(-n2nc(C(C)(C)C)cc2NC(=O)N[C@H]2CC[C@@H](Oc3ccc4nnc(-c5c(Cl)cccc5Cl)n4c3)c3ccccc32)cc1 (racemic) noted as > 8.00
